System: 786-0 renal
Assay: NCI-60 one-dose screen, 48 h (100 = growth as untreated, 0 = no growth, -100 = all killed)
Settings: 10 µM unless noted
This is part of a sample that, as a whole, favours compounds with a hit. Of some 83,000 tested, about 20% had one in any assay. Activity calls are given as the source filed them. The calls were made as follows: active = growth percent below 10; inactive = the rest.
experimentalEndpoint: growth

Study these solved cases before continuing.
COc1ccc(C2CC(n3ccnc3)c3cc(OC)c(OC)c(OC)c32)cc1O (stereo not given) | 91.7% (inactive)
CC(C)c1ccc2c(c1)CC[C@H]1[C@](C)(C(=O)OCC#CCN3CCCC3)CCC[C@]21C | 84.1% (inactive)
CC(C)(C)OC(=O)CN1CCc2c(sc3ncnc(N4CCN(c5ccc(F)cc5)CC4)c23)C1 | 81.8% (inactive)
Cc1ccc(S(=O)(=O)N2CCCN(c3nc(-c4ccccc4)nc4nc(-c5ccccc5)oc34)CC2)cc1 | 102% (inactive)

Now turn to the next compound.
Please list growth recorded for the compound CCCCNC(=O)c1ccc2c(c1)nc(-c1ccccc1)n2C1CCCCC1
92.7% (inactive)

====

System: SK-MEL-28 melanoma
Assay: NCI-60 one-dose screen, 48 h
Settings: 10 µM unless noted
Compounds without any hit were thinned out: in the full panel of roughly 83,000, 20% have a hit. Active and inactive are the calls of the source. How the source made its calls: active means growth percent below 10; inactive means the rest.
Response enum: class 1 = active, class 0 = inactive

Below, 3 compounds whose answers are already recorded.
CCOC(=O)CC[C@H](NC(=O)c1ccc(N(C)Cc2cnc3nc(N)nc(N)c3n2)c2ccccc12)C(=O)OCC | class 0
COc1ccc(CNc2ccc3nc(NC(=O)CN4CCCCCC4)sc3c2)cc1 | class 0
O=S(=O)(NCCNc1nccc(-c2c(-c3ccc(F)c(O)c3)nc3sccn23)n1)c1ccc(Cl)cc1 | class 0

Hi, do you know how CCN(CC)C(=O)C1=C(C)NC(=O)NC1c1ccc2c(c1)OCO2 (centres undefined) came out in this test?
class 0

Fill in: this test's call for CCN(CC)c1ccc(-c2cc(-c3cc(OC)c(OC)c(OC)c3)nc(N3CCC(O)CC3)c2C#N)cc1 is ___
class 1

Give the logged outcome of this assay for the following compound: O=C(Cc1ccc(/C=C/C(=O)c2ncc[nH]2)cc1)Nc1cc(F)c(F)c(F)c1
class 0

====

System: MDA-MB-435 melanoma
Assay: NCI-60 one-dose screen, 48 h
Settings: 10 µM unless noted
About 83,000 compounds went through this panel and 20% of them were active in at least one assay; those are over-represented in the sample as a whole. Activity calls are given as the source filed them. How the source made its calls: active means growth percent below 10; inactive means the rest.
Hello, when you answer, please use one of the following outcomes: true (1) (active), false (0) (inactive)

Sample answers from the record:
COc1ccc(-c2nc3ccc(C)cc3c3c2c(=O)n(C)c(=O)n3C)cc1OC | false (0)
N=C(N)c1ccc(OCCSCCOc2ccc(C(=N)N)cc2)cc1 | false (0)
CCN(CC)CCOc1ccc2c(-c3ccccc3)c(-c3ccc(OC)cc3)c(=O)oc2c1 | false (0)
O=C(c1c[nH]c2ccccc12)c1n[nH]c(=S)n1-c1ccc([N+](=O)[O-])cc1 | false (0)
COc1cc2ncnc(Nc3ccc(S(=O)(=O)Nc4nccs4)cc3)c2cc1OCCCN1CCCC1 | false (0)

Which outcome was assigned to COC(=O)[C@@]12CC=C(C)[C@]3(C[C@H](c4ccoc4)OC3=O)[C@H]1C=C[C@@H](O)[C@@]2(O)C(=O)OC in this test?
false (0)

For this molecule, state the assay outcome: O=C(NCc1ccc(Cn2c(=O)sn(-c3ccccc3)c2=O)cc1)OCc1ccc2cccc(O)c2n1
true (1)

What did the test return for CC(C)(C)c1ccc(S(=O)(=O)Oc2ccc(-c3sc4cc(OS(=O)(=O)c5ccc(C(C)(C)C)cc5)ccc4c3C(=O)c3ccc(OCCN4CCCCC4)cc3)cc2)cc1 ?
false (0)

====

System: MDA-MB-231 breast
Assay: NCI-60 one-dose screen, 48 h (100 = growth as untreated, 0 = no growth, -100 = all killed)
Settings: 10 µM unless noted
Procedure: Cells are grown in 96 well plates and exposed to the test compound for 48 hours. Compounds are tested at a single concentration, which is 10^-5 M for most compounds. The reported endpoint is percent growth (GI% or GIPRCNT), where numbers from 0 - 100% represent growth inhibition, and numbers from -100% - 0 represent cell death. For example, a value of 40 represents 60% growth inhibition. A value of 0 means no net growth occurred over the course of the experiment. […]
Compounds without any hit were thinned out: in the full panel of roughly 83,000, 20% have a hit.
Here the recorded growth is given for each entry.
# number only, unit % dropped from output

CN1CCN(c2ccc(NC3=CC(=O)c4ncncc4C3=O)cc2)CC1 | -15.1

Identify measured growth associated with O=C(/C=C/c1ccccc1)c1ccc(-n2cc(CN3CCN(c4cc5c(cc4F)c(=O)c(C(=O)O)cn5C4CC4)CC3)nn2)cc1
89.4

In one line, give reported growth of the entry CCN1C(=O)N(c2ccccc2)C2NC(=S)N(/N=C/C=C/c3ccccc3OC)C21 (configuration not stated) .
16.7

Dear colleague, please send me the reported growth for CC(O)Cc1c[nH]c(=O)[nH]c1=O (configuration not stated) when you can.
112

Identify the reported growth for the following entry. CCCCNC(=O)c1ccc2c(c1)nc(-c1ccccc1)n2C1CCCCC1
96.1

Using known records, supply growth for COc1ccc(C(=O)C/C(=C\c2ccc(O)c(OC)c2)C(=O)NN)cc1
65.4

Entry O=C(NCCCCO)c1cncnc1Nc1ccc2c(ccn2Cc2cccc(F)c2)c1 needs its growth filled in; supply it.
69.3

For COc1ccc(C/C(C)=C(\c2ccc(Cl)cc2)c2ccc(OCCN3CCCC3)cc2)cc1 , write its growth.
85.7

Please report the measured growth for C=CCn1cc(-c2nc3ccccc3s2)c2cc(-c3ccc4c5c(cccc35)C(=O)N(CCO)C4=O)ccc21
85.2

Please supply the value of reported growth for the item Cc1nc2ccccc2c(/C=C/c2ccc(F)cc2)c1C(=O)/C=C/c1ccccc1
22.4

Consider the compound CN1CC(c2ccc(Br)cc2)C(C(=O)c2ccc(Br)cc2)C12C(=O)Nc1ccccc12 (configuration not stated) . State its measured growth.
81.7

====

Test system: SR leukemia
Test: NCI-60 one-dose screen, 48 h (100 = growth as untreated, 0 = no growth, -100 = all killed)
Details: 10 µM unless noted
About 83,000 compounds went through this panel and 20% of them were active in at least one assay; those are over-represented in the sample as a whole.
experimentalEndpoint: growth (%)
Report only the number, with the unit % understood.

CCCCCCCCCCCCCCCCCCOc1ccccc1CC(=O)NCC[N+](C)(C)C | 21.3
Oc1c(CN2CCC(N3CCOCC3)CC2)cc(Cc2cc(CN3CCC(N4CCOCC4)CC3)c(O)c3ncccc23)c2cccnc12 | 20
CC[C@H](Nc1nc(N)nc(C)c1C#N)c1nc2cccc(CN(C)c3ncc(C(=O)NO)cn3)c2c(=O)n1-c1ccccc1 | 14.1
Cc1c(O)cc(-c2cnc(N/N=C/c3ccccc3)s2)c(O)c1C | 95.3
CC(O)Cc1c[nH]c(=O)[nH]c1=O (stereo not given) | 93.8

Next, consider the following compound.
Under SR leukemia, report growth for NS(=O)(=O)c1ccc(C(=O)NN2C(=O)c3ccccc3C2=O)cc1
105

====

System: KM12 colon
Test: NCI-60 one-dose screen, 48 h (100 = growth as untreated, 0 = no growth, -100 = all killed)
Conditions: 10 µM unless noted
Protocol: Growth inhibition of the KM12 human tumor cell line is measured as a screen for anti-cancer activity. Cells are grown in 96 well plates and exposed to the test compound for 48 hours. Compounds are tested at a single concentration, which is 10^-5 M for most compounds. The reported endpoint is percent growth (GI% or GIPRCNT), where numbers from 0 - 100% represent growth inhibition, and numbers from -100% - 0 represent cell death. For example, a value of 40 represents 60% growth inhibition. […]
About 83,000 compounds went through this panel and 20% of them were active in at least one assay; those are over-represented in the sample as a whole.
experimentalEndpoint: growth (%)
Give the value, in units of %, as a plain number.

Known results for compounds:
C[N+]1=C(/C=C/c2ccccc2Cl)C(C)(C)c2ccccc21 | 96.6
CC[C@@H](C(=O)[C@@H](C)[C@@H](O)[C@H](C)[C@@H]1O[C@@H]([C@@H](CC)C(=O)ONC(=O)c2ccccc2O)CC[C@@H]1C)C1O[C@]2(C=CC(=O)[C@]3(CC[C@@](C)([C@H]4CC[C@](O)(CC)[C@H](C)O4)O3)O2)[C@H](C)C[C@@H]1C (some centres not stated) | 51.3
CC(=O)c1c(Nc2cccc(F)c2)[nH]c2c(Cl)cc(Cl)c(Cl)c2c1=O | 4.18
O=C(Nc1ccc(Oc2cccc(Cl)c2)c(Cl)c1)c1cccnn1 | 85.3
CC(=O)N1N=C(c2ccc(Nc3nc(Nc4ccc(F)cc4)nc(Nc4ccc(F)cc4)n3)cc2)CC1c1ccc(N(C)C)cc1 (configuration not stated) | 39.8
CCOC(=O)c1c(C)nc2ccccc2c1/C=C/c1ccc(F)cc1 | 72.5

# input for lookup
Annotate the compound COc1ccc2c(c1)CC[C@@H]1[C@@H]2CC[C@]2(C)C3C(=CC(COC(C)=O)C4C(=O)N(c5ccc(Cl)cc5)C(=O)C43)C[C@@H]12 (some centres not stated) with its measured growth.
102
